Reference for the values: paper PMC3961306

- assay target: panel of more than 300 wild-type and mutant kinases (313 kinase panel) (Homo sapiens)
- Sequence (P43403 1-619): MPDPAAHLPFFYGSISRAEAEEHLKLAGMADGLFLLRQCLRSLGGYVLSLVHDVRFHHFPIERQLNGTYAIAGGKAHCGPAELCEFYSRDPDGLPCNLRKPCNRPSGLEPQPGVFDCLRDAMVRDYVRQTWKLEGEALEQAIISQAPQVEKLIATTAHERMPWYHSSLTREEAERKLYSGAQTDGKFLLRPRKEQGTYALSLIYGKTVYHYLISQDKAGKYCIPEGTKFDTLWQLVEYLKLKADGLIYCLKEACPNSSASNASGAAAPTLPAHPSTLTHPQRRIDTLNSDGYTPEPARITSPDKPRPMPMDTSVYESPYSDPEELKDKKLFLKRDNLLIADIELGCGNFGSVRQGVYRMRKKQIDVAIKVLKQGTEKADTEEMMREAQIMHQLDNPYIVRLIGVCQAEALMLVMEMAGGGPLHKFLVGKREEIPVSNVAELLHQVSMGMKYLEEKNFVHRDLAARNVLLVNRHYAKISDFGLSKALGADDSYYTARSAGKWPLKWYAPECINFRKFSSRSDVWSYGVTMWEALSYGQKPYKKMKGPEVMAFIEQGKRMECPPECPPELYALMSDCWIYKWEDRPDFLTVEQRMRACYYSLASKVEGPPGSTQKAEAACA
- experimental protocol: Kinase profiling in a biochemical assay panel (mobility shift assays and ELISA), %-inhibition at 1 μM; selectivity entropy
- condition set: kinase ZAP70; compound at 1 μM
readout kind: %-inhibition of ZAP70 (%)

• O=S(=O)(c1cccc2cnccc12)N1CCCNCC1 = -2
• CS(=O)(=O)CCNCc1ccc(-c2ccc3ncnc(Nc4ccc(OCc5cccc(F)c5)c(Cl)c4)c3c2)o1 = 6
• COc1cc2c(Nc3ccc(Br)cc3F)ncnc2cc1OCC1CCN(C)CC1 = 4.47
• CC(=O)Nc1cccc(-n2c(=O)n(C3CC3)c(=O)c3c(Nc4ccc(I)cc4F)n(C)c(=O)c(C)c32)c1 = -3
• CC(C)(C)c1nc(-c2cccc(NS(=O)(=O)c3c(F)cccc3F)c2F)c(-c2ccnc(N)n2)s1 = 3.47
• CCCS(=O)(=O)Nc1ccc(F)c(C(=O)c2c[nH]c3ncc(-c4ccc(Cl)cc4)cc23)c1F = 6
• CNC(=O)c1cc(Oc2ccc(NC(=O)Nc3ccc(Cl)c(C(F)(F)F)c3)c(F)c2)ccn1 = -0.475
• Cc1ccc(Nc2nccc(N(C)c3ccc4c(C)n(C)nc4c3)n2)cc1S(N)(=O)=O = 39
• CO[C@H]1C[C@@H]2CC[C@@H](C)[C@@](O)(O2)C(=O)C(=O)N2CCCC[C@H]2C(=O)O[C@H]([C@H](C)C[C@@H]2CC[C@@H](OCCO)[C@H](OC)C2)CC(=O)[C@H](C)/C=C(\C)[C@@H](O)[C@@H](OC)C(=O)[C@H](C)C[C@H](C)/C=C/C=C/C=C/1C = -2
• COc1cc(Nc2c(C#N)cnc3cc(OCCCN4CCN(C)CC4)c(OC)cc23)c(Cl)cc1Cl = 76
• N#CC[C@H](C1CCCC1)n1cc(-c2ncnc3[nH]ccc23)cn1 = 2.76
• Cc1ccc(C(=O)Nc2ccc(CN3CCN(C)CC3)c(C(F)(F)F)c2)cc1C#Cc1cnc2cccnn12 = 5
• C[C@@H](Oc1cc(-c2cnn(C3CCNCC3)c2)cnc1N)c1c(Cl)ccc(F)c1Cl = 21
• COc1cc2nccc(Oc3ccc(NC(=O)C4(C(=O)Nc5ccc(F)cc5)CC4)cc3)c2cc1OC [cabozantinib] = 0.856
• CO[C@H]1C[C@@H]2CC[C@@H](C)[C@@](O)(O2)C(=O)C(=O)N2CCCC[C@H]2C(=O)O[C@H]([C@H](C)C[C@@H]2CC[C@@H](OC(=O)C(C)(CO)CO)[C@H](OC)C2)CC(=O)[C@H](C)/C=C(\C)[C@@H](O)[C@@H](OC)C(=O)[C@H](C)C[C@H](C)/C=C/C=C/C=C/1C = -2.76

* * *

Recorded %-inhibition, CLK1 values for a group of compounds are listed next.
- assay target: panel of more than 300 wild-type and mutant kinases (313 kinase panel) (Homo sapiens)
- experimental protocol: Kinase profiling in a biochemical assay panel (mobility shift assays and ELISA), %-inhibition at 1 μM; selectivity entropy
- condition set: kinase CLK1; 1 μM compound
readout kind: %-inhibition, CLK1 (%)

- CCCS(=O)(=O)Nc1ccc(F)c(C(=O)c2c[nH]c3ncc(-c4ccc(Cl)cc4)cc23)c1F [vemurafenib]: 5
- Cc1ccc(Nc2nccc(N(C)c3ccc4c(C)n(C)nc4c3)n2)cc1S(N)(=O)=O [pazopanib]: 7.57
- C[C@@H](Oc1cc(-c2cnn(C3CCNCC3)c2)cnc1N)c1c(Cl)ccc(F)c1Cl [crizotinib]: 13
- CS(=O)(=O)CCNCc1ccc(-c2ccc3ncnc(Nc4ccc(OCc5cccc(F)c5)c(Cl)c4)c3c2)o1 [lapatinib]: 14
- CC(=O)Nc1cccc(-n2c(=O)n(C3CC3)c(=O)c3c(Nc4ccc(I)cc4F)n(C)c(=O)c(C)c32)c1 [trametinib]: -0.618
- COc1cc2c(Nc3ccc(Br)cc3F)ncnc2cc1OCC1CCN(C)CC1 [vandetanib]: 14
- O=S(=O)(c1cccc2cnccc12)N1CCCNCC1 [fasudil]: 32
- Cc1cn(-c2cc(NC(=O)c3ccc(C)c(Nc4nccc(-c5cccnc5)n4)c3)cc(C(F)(F)F)c2)cn1 [nilotinib]: 81
- COc1cc2nccc(Oc3ccc(NC(=O)C4(C(=O)Nc5ccc(F)cc5)CC4)cc3)c2cc1OC [cabozantinib]: 7
- CNC(=O)c1cc(Oc2ccc(NC(=O)Nc3ccc(Cl)c(C(F)(F)F)c3)c(F)c2)ccn1 [regorafenib]: 38
- N#CC[C@H](C1CCCC1)n1cc(-c2ncnc3[nH]ccc23)cn1 [ruxolitinib]: 33
- CO[C@H]1C[C@@H]2CC[C@@H](C)[C@@](O)(O2)C(=O)C(=O)N2CCCC[C@H]2C(=O)O[C@H]([C@H](C)C[C@@H]2CC[C@@H](OCCO)[C@H](OC)C2)CC(=O)[C@H](C)/C=C(\C)[C@@H](O)[C@@H](OC)C(=O)[C@H](C)C[C@H](C)/C=C/C=C/C=C/1C [everolimus]: -7.39
- CC(C)(C)c1nc(-c2cccc(NS(=O)(=O)c3c(F)cccc3F)c2F)c(-c2ccnc(N)n2)s1 [dabrafenib]: 7

* * *

- assay target: panel of more than 300 wild-type and mutant kinases (313 kinase panel) (Homo sapiens)
- Sequence (Q9NRA0 1-654): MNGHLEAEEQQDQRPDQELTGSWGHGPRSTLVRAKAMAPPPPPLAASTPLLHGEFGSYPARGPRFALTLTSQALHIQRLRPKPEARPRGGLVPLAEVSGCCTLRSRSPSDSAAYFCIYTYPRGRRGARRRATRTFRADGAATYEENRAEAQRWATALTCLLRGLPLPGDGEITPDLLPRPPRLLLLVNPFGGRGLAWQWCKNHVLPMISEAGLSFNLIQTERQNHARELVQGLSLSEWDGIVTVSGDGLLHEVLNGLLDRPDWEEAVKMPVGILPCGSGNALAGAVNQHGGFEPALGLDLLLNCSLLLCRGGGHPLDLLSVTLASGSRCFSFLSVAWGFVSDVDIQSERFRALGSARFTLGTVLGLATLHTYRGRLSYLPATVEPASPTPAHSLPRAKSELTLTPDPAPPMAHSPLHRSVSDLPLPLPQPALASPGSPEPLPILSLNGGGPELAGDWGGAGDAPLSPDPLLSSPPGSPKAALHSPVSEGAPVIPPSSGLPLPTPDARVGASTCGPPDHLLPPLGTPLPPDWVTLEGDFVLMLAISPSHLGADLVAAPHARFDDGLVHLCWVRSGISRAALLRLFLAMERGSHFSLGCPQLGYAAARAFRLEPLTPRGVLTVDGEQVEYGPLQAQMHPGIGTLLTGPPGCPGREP
- experimental protocol: Kinase profiling in a biochemical assay panel (mobility shift assays and ELISA), %-inhibition at 1 μM; selectivity entropy
- condition set: kinase SPHK2; 1 μM
Recorded %-inhibition of SPHK2 values for a group of compounds are listed next.
readout kind: %-inhibition of SPHK2

- N#CC[C@H](C1CCCC1)n1cc(-c2ncnc3[nH]ccc23)cn1: 6%
- CS(=O)(=O)CCNCc1ccc(-c2ccc3ncnc(Nc4ccc(OCc5cccc(F)c5)c(Cl)c4)c3c2)o1: -4%
- CCCS(=O)(=O)Nc1ccc(F)c(C(=O)c2c[nH]c3ncc(-c4ccc(Cl)cc4)cc23)c1F: 8%
- O=S(=O)(c1cccc2cnccc12)N1CCCNCC1: -21%
- CC(=O)Nc1cccc(-n2c(=O)n(C3CC3)c(=O)c3c(Nc4ccc(I)cc4F)n(C)c(=O)c(C)c32)c1: -14%
- COc1cc(Nc2c(C#N)cnc3cc(OCCCN4CCN(C)CC4)c(OC)cc23)c(Cl)cc1Cl: 4.4%
- Cc1cn(-c2cc(NC(=O)c3ccc(C)c(Nc4nccc(-c5cccnc5)n4)c3)cc(C(F)(F)F)c2)cn1: 6%
- CN(C)C/C=C/C(=O)Nc1cc2c(Nc3ccc(F)c(Cl)c3)ncnc2cc1O[C@H]1CCOC1: -10%
